test: Stability in rat liver microsomes; type: in vitro ADME
Residues, ends and D or L forms follow the SMILES beside them.
observedProperty: half-life (h)
Your answer is read as h, so omit the unit and give the number.

Task: Look up half-life for this compound: CC(C)[C@@H]1NC(=O)CNC(=O)[C@H](C)NC(=O)[C@H](CO)NC(=O)[C@H](C(C)C)NC(=O)[C@H](CO)NC(=O)[C@H](C(C)C)NC(=O)[C@H](C)NC(=O)CNC(=O)[C@H](CC(=O)O)NC(=O)[C@H](CCCCN)NC(=O)[C@H](CCC(=O)O)NC(=O)[C@H]([C@@H](C)O)NC(=O)[C@H]([C@@H](C)O)NC1=O [TP4] (cyclo(AGVTTEKDGAVSVS); ring closure inferred)
Result: 3.94

* * *

assay: Stability in simulated intestinal fluid; assay type: in vitro ADME; conditions: pH 6.5
Residues, ends and D or L forms follow the SMILES beside them.
observedProperty: half-life (h)
Lab book: enter the figure in h, no units written.

Task: What value of measured half-life is listed for CC(C)[C@@H]1NC(=O)CNC(=O)[C@H](C)NC(=O)[C@H](CO)NC(=O)[C@H](C(C)C)NC(=O)[C@H](CO)NC(=O)[C@H](C(C)C)NC(=O)[C@H](C)NC(=O)CNC(=O)[C@H](CC(=O)O)NC(=O)[C@H](CCCCN)NC(=O)[C@H](CCC(=O)O)NC(=O)[C@H]([C@@H](C)O)NC(=O)[C@H]([C@@H](C)O)NC1=O [TP4] (cyclo(AGVTTEKDGAVSVS); ring closure inferred) ?
Result: 5.82

* * *

assay: Stability in human plasma; format: in vitro ADME
Residues, ends and D or L forms follow the SMILES beside them.
observedProperty: remaining at 1 h (%)
Return type: number; implicit unit %.

Task: Suppose we examine the compound CC(C)[C@@H]1NC(=O)CNC(=O)[C@H](C)NC(=O)[C@H](CO)NC(=O)[C@H](C(C)C)NC(=O)[C@H](CO)NC(=O)[C@H](C(C)C)NC(=O)[C@H](C)NC(=O)CNC(=O)[C@H](CC(=O)O)NC(=O)[C@H](CCCCN)NC(=O)[C@H](CCC(=O)O)NC(=O)[C@H]([C@@H](C)O)NC(=O)[C@H]([C@@H](C)O)NC1=O [TP4] (cyclo(AGVTTEKDGAVSVS); ring closure inferred) ; what remaining at 1 h value has been reported?
Result: 83.1

* * *

experiment: Caco-2 cell permeability; format: in vitro ADME
Residues, ends and D or L forms follow the SMILES beside them.
observedProperty: Papp A→B (×10⁻⁶ cm/s)
Field: numeric (×10⁻⁶ cm/s). Do not append units.

Task: Returns the measured Papp A→B for the input molecule. Input: CC(C)[C@@H]1NC(=O)CNC(=O)[C@H](C)NC(=O)[C@H](CO)NC(=O)[C@H](C(C)C)NC(=O)[C@H](CO)NC(=O)[C@H](C(C)C)NC(=O)[C@H](C)NC(=O)CNC(=O)[C@H](CC(=O)O)NC(=O)[C@H](CCCCN)NC(=O)[C@H](CCC(=O)O)NC(=O)[C@H]([C@@H](C)O)NC(=O)[C@H]([C@@H](C)O)NC1=O [TP4] (cyclo(AGVTTEKDGAVSVS); ring closure inferred)
Result: 1.32
